system: 313798-341-R-J2-PDC spheroids, viability; experiment: Anticancer human tumor 313798-341-R-J2-PDC patient-derived cervical squamous cell carcinoma cell line growth inhibition [PI3K]; conditions: second compound 0.00316 µM; first compound 0.316 µM; active compounds read low; spheroids with HUVEC and MSC;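 note: spheroids exposed to compounds for seven days; 100% = DMSO vehicle control viability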
parameter: viability, T/C (%)
State just the number; it will be interpreted in %.

- CCCS(=O)(=O)Nc1ccc(F)c(C(=O)c2c[nH]c3ncc(-c4ccc(Cl)cc4)cc23)c1F + CC(Nc1ccc2c(c1)OCCn1cc(N3C(=O)OCC3C(F)F)nc1-2)C(N)=O: 88.4
- C=CC(=O)N1CCN(c2nc(=O)n(-c3c(C)ccnc3C(C)C)c3nc(-c4c(O)cccc4F)c(F)cc23)C(C)C1 (stereo not drawn) + CC(Nc1ccc2c(c1)OCCn1cc(N3C(=O)OCC3C(F)F)nc1-2)C(N)=O: 97.2
- CNC(=O)c1ccc(N2C(=S)N(c3ccc(C#N)c(C(F)(F)F)c3)C(=O)C2(C)C)cc1F + CC(Nc1ccc2c(c1)OCCn1cc(N3C(=O)OCC3C(F)F)nc1-2)C(N)=O: 89.7

For the molecule Cn1ncc(Cl)c1-c1cc(C(=O)NC(CN)Cc2cccc(F)c2)sc1Cl (stereo not drawn) + CC(Nc1ccc2c(c1)OCCn1cc(N3C(=O)OCC3C(F)F)nc1-2)C(N)=O , what viability, T/C is on record?
94.2

Same lookup for C=CC(=O)N1CCN(c2nc(=O)n(-c3c(C)ccnc3C(C)C)c3nc(-c4c(O)cccc4F)c(F)cc23)C(C)C1 (stereo not drawn) + COc1c(OCCCN2CCOCC2)ccc2c3n(c(=NC(=O)c4cnc(N)nc4)nc12)CCN3 , please.
106

Source: PubChem BioAssay AID1963982
